Target: DNA ligase (UniProt B1XA82)
Sequence (B1XA82 whole entry): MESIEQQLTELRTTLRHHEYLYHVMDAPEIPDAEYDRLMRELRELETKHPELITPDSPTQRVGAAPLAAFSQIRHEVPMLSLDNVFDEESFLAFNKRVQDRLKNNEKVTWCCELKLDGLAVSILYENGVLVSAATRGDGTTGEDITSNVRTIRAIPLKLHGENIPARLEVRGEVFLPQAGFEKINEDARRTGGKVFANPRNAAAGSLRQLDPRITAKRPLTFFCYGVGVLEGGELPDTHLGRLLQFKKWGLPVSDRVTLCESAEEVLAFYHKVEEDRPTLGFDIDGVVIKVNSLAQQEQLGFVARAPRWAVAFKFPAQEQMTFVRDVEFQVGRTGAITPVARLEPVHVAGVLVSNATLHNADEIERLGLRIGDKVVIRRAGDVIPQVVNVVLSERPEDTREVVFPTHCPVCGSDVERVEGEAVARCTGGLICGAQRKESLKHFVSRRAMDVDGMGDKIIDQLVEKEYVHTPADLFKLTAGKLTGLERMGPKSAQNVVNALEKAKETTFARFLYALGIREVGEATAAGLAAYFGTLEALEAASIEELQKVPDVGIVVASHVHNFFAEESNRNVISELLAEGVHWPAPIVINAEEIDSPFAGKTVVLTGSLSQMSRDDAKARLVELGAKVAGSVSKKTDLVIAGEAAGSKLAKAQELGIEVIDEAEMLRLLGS
Test: relative enzymatic activity vs untreated control (fraction); higher = less inhibition
Conditions: 100 µM; incubation time: 2 h at 37 C
relative enzymatic activity by entry:

| MOLECULE | relative enzymatic activity |
| --- | --- |
| CCCC[P+](CCCC)(CCCC)Cc1ccc(NC(=O)[C@@H](Cc2ccc3ccccc3c2)N=C(NC2CCCCC2)NC2CCCCC2)cc1 | 0.897 |
| CN(C)c1ccc(O)c2c1C[C@H]1C[C@H]3[C@H](N(C)C)C(=O)[C@@H](C(N)=O)C(=O)[C@@]3(O)C(=O)[C@H]1C2=O | 0.837 |
| CO/N=C1\CN(c2nc3c(cc2F)c(=O)c(C(=O)O)cn3C2CC2)C[C@@H]1CN | 0.891 |
| CC1COc2c(N3CCN(C)CC3)c(F)cc3c(=O)c(C(=O)O)cn1c23 (stereo not given) | 1.39 |
| CON=C(C(=O)NC1C(=O)N2C(C(=O)[O-])=C(COC(N)=O)CSC12)c1ccco1.[Na+] (stereo not given) | 1.36 |
| CCN1CCN(c2cc3c(cc2F)c(=O)c(C(=O)O)cn3C2CC2)CC1 | 1.05 |
| COc1c(N2CCNC(C)C2)c(F)cc2c(=O)c(C(=O)O)cn(C3CC3)c12 (stereo not given) | 0.942 |
| CC1C(NC(=O)C(=NOC(C)(C)C(=O)O)c2csc(N)n2)C(=O)N1S(=O)(=O)O (stereo not given) | 1.36 |
| O=C1NCCN1c1ncc([N+](=O)[O-])s1 | 0.852 |
| CCn1nc(C(=O)O)c(=O)c2cc3c(cc21)OCO3 | 1.09 |

----------
Target: DNA primase (UniProt P0ABS7)
Sequence (P0ABS7 whole entry): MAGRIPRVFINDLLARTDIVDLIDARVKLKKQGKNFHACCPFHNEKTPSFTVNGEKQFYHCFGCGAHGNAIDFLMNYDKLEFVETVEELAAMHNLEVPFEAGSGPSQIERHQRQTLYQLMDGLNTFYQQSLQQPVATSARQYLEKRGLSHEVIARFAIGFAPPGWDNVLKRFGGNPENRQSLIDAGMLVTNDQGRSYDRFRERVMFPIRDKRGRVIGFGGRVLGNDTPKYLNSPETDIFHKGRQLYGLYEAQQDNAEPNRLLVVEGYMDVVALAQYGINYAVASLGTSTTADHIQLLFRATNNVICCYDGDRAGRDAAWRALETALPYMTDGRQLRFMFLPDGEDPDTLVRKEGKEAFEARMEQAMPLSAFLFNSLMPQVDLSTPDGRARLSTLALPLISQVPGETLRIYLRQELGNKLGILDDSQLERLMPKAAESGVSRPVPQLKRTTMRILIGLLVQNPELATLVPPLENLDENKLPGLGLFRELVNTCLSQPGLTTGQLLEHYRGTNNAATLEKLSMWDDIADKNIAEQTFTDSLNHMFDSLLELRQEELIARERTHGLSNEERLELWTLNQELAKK
Test: relative enzymatic activity vs untreated control (fraction); higher = less inhibition
Conditions: 100 µM; incubation time: 2 h at 37 C
relative enzymatic activity by entry:

| MOLECULE | relative enzymatic activity |
| --- | --- |
| COC1(NC(=O)C(C(=O)[O-])c2ccc(O)cc2)C(=O)N2C(C(=O)[O-])=C(CSc3nnnn3C)COC21.[Na+].[Na+] (centres undefined) | 0.693 |
| CN(C)C1C(O)=C(C(N)=O)C(=O)C2(O)C(O)=C3C(=O)c4c(O)ccc(Cl)c4C(C)(O)C3CC12.Cl (centres undefined) | 0.707 |
| NC(=O)N/N=C/c1ccc([N+](=O)[O-])o1 | 0.761 |
| CO[C@@]12[C@@H]3N[C@@H]3CN1C1=C(C(=O)C(N)=C(C)C1=O)[C@@H]2COC(N)=O | 0.837 |
| CCC(C)CCCCC(=O)NC(CCN)C(=O)NC(C(=O)NC(CCN)C(=O)NC1CCNC(=O)C(C(C)O)NC(=O)C(CCN)NC(=O)C(CCN)NC(=O)C(CC(C)C)NC(=O)C(Cc2ccccc2)NC(=O)C(CCN)NC1=O)C(C)O.O=S(=O)(O)O (centres undefined) | 0.688 |
| NCCCC[C@H](NC(=O)[C@@H](NC(=O)[C@H](Cc1c[nH]c2ccccc12)NC(=O)[C@H](CCCCN)NC(=O)[C@H](CCCCN)NC(=O)[C@H](Cc1c[nH]c2ccccc12)NC(=O)[C@H](Cc1c[nH]c2ccccc12)NC(=O)[C@H](CCCCN)NC(=O)[C@@H](N)CCCCN)C(c1ccccc1)c1ccccc1)C(N)=O | 0.299 |
| CC1(C)SC2C(N3C(=O)C(c4ccccc4)NC3(C)C)C(=O)N2C1C(=O)[O-].[K+] (centres undefined) | 0.776 |
| Cl.N=C(N)n1cccn1 | 0.868 |
| C[C@H]1c2cccc(O)c2C(=O)C2=C(O)[C@]3(O)C(=O)[C@@H](C(N)=O)C(=O)[C@@H](N(C)C)[C@@H]3[C@@H](O)[C@@H]21 | 0.832 |
| CC[C@@H](C)CCCCC(=O)N[C@@H](CCN)C(=O)N[C@H](C(=O)N[C@@H](CCN)C(=O)N[C@H]1CCNC(=O)[C@H]([C@@H](C)O)NC(=O)[C@H](CCN)NC(=O)[C@H](CCN)NC(=O)[C@H](CC(C)C)NC(=O)[C@@H](Cc2ccccc2)NC(=O)[C@@H](CCN)NC1=O)[C@@H](C)O | 0.616 |
| COC1(NC(=O)C2SC(=C(C(N)=O)C(=O)O)S2)C(=O)N2C(C(=O)O)=C(CSc3nnnn3C)CSC21 (centres undefined) | 0.683 |
| CN1CCN(c2c(F)cc3c(=O)c(C(=O)O)cn(CCF)c3c2F)CC1 | 0.722 |
| CCCCCCCCCCCCCCCC[N+](C)(C)C | 0.384 |
| Oc1c(Cl)cc(Cl)c2cccnc12 | 0.637 |

The measured values listed here are drawn from the supplement of paper PMC9446081.
